Hello, the source for this data is the Immune Epitope Database (IEDB), in case you need it.

molecular target: HLA-B*27:05; assay: IEDB peptide-MHC binding, purified MHC/direct/fluorescence; filed as Kd, often an IC50 or EC50 that approximates it; bounds were set here for any values at or beyond the usual limits of such assays; conditions: source organism: Vibrio parahaemolyticus
pKd: −log10 of the molar value.
Recorded pKd by entry

MLDQFGVSY: ≤ 4.70

// query Could you tell me which pKd is on file for AFDWPELEF ?
// result ≤ 4.70

* * *

target: HLA-A*31:01; assay: IEDB peptide-MHC binding, purified MHC/direct/fluorescence; filed as Kd, often an IC50 or EC50 that approximates it; bounds were set here for any values at or beyond the usual limits of such assays; conditions: source organism: Yellow fever virus 1899/81
pKd: −log10 of the molar value.
measured-metric: pKd

// query Could you tell me which pKd is on file for RADEINAIL ?
// result ≤ 4.70
